System: human hepatoma cell line ET
Conditions: read-out: Cytotoxicity IC50; Example 2; ET cells, 72 h, colorimetric assay
Metric name: IC50 (µM)
Your answer should be a plain number; it is taken to be in µM.

Request: Which measured IC50 value corresponds to CC=CCC(C)C(O)C1C(=O)NC(CC)C(=O)N(C)C(SCCN(C)C)C(=O)N(C)C(CC(C)(C)O)C(=O)NC(C(C)C)C(=O)N(C)C(CC(C)C)C(=O)NC(C)C(=O)NC(C)C(=O)N(C)C(CC(C)C)C(=O)N(C)C(CC(C)C)C(=O)N(C)C(C(C)C)C(=O)N1C (centres unmarked) ?
Response: 13.4
